Form field: IC50 (one value per entry).
- assayed-system: full-length human PKCι (Homo sapiens, UniProt P41743)
- Construct: Recombinant, full-length human PKCι expressed in Sf21 insect cells is also commercially available
- Sequence (P41743 whole entry): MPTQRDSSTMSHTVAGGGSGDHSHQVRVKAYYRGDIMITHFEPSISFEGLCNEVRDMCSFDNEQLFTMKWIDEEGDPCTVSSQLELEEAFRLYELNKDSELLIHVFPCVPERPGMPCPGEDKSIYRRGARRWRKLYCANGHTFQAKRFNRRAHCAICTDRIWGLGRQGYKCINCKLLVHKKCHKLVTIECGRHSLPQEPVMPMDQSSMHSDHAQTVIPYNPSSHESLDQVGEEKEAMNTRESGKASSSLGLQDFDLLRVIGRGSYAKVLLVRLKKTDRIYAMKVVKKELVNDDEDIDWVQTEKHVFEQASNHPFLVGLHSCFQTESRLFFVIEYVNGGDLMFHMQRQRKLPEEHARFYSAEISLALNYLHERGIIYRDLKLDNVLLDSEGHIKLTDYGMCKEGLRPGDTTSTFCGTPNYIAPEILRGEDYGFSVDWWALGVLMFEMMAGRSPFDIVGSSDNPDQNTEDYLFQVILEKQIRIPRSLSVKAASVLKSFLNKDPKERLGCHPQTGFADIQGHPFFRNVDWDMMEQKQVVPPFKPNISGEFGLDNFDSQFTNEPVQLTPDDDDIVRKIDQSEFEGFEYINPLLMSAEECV
- procedure-details: PKCι IC50 IMAP assay, full-length PKCι at 150 μM ATP
- condition-summary: read-out: IC50 in IMAP assay against full length PKCi at 150 μM ATP

Reference set, count: 10
molecule=N#Cc1cccc(Nc2cc(-c3nc(N4CCNCC4)c4c(C5CC5)cncc4n3)ccn2)n1 assayed_system="full-length human PKCι (Homo sapiens, UniProt P41743)" experimental_value="< 100 nM"
molecule=COc1cncc2nc(-c3ccnc(NC(=O)C4CCOCC4)c3)nc(N3CCNCC3)c12 assayed_system="full-length human PKCι (Homo sapiens, UniProt P41743)" experimental_value="< 100 nM"
molecule="FC(F)(F)c1cc2c(-c3nc(N4CCNC(C(F)(F)F)C4)c4c(C5CC5)cncc4n3)ccnc2[nH]1 (stereo not drawn)" assayed_system="full-length human PKCι (Homo sapiens, UniProt P41743)" experimental_value="1000 to 10000 nM"
molecule=N#Cc1ccnc(Nc2cc(-c3nc(N4CCNCC4)c4ccncc4n3)ccn2)c1 assayed_system="full-length human PKCι (Homo sapiens, UniProt P41743)" experimental_value="100 to 1000 nM"
molecule=FC(F)(F)C1(c2cc3c(-c4nc(N5CCNCC5)c5c(C6CCC6)cncc5n4)ccnc3[nH]2)CCC1 assayed_system="full-length human PKCι (Homo sapiens, UniProt P41743)" experimental_value="< 100 nM"
molecule=CN(c1nc(-c2ccnc(Nc3nc(F)c(F)cc3F)c2)nc2c(Cl)ncc(C3CC3)c12)C1CCNCC1 assayed_system="full-length human PKCι (Homo sapiens, UniProt P41743)" experimental_value="< 100 nM"
molecule=COc1cncc2nc(-c3ccnc(Nc4cccc(N5CCNCC5)c4)c3)ncc12 assayed_system="full-length human PKCι (Homo sapiens, UniProt P41743)" experimental_value="1000 to 10000 nM"
molecule=Clc1cnc(-c2cc[nH]n2)c2nc(-c3ccncc3)nc(N3CCNCC3)c12 assayed_system="full-length human PKCι (Homo sapiens, UniProt P41743)" experimental_value="100 to 1000 nM"
molecule=Fc1cc(C2CC2)cnc1Nc1cc(-c2nc(N3CCNCC3)c3c(C4CC4)cncc3n2)ccn1 assayed_system="full-length human PKCι (Homo sapiens, UniProt P41743)" experimental_value="< 100 nM"
molecule=COc1cncc2nc(-c3ccnc(NC(=O)Cc4cccc(C(F)(F)F)c4)c3)nc(N3CCNCC3)c12 assayed_system="full-length human PKCι (Homo sapiens, UniProt P41743)" experimental_value="< 100 nM"

Exam item: Give IC50 for `O=C(NCCO)C1CCN(c2nc(-c3ccnc(Nc4c(F)cccc4F)c3)nc3cncc(C4CC4)c23)CC1` tested on full-length human PKCι (Homo sapiens, UniProt P41743).
Marked response: 100 to 1000 nM

Exam item: Give IC50 for `O=C(Cc1ccccc1)Nc1cc(-c2nc(N3CCNCC3)c3c(C4CC4)cncc3n2)ccn1` tested on full-length human PKCι (Homo sapiens, UniProt P41743).
Marked response: < 100 nM

Exam item: Give IC50 for CC1CN(c2nc(-c3ccnc(Nc4nc(F)ccc4F)c3)nc3cncc(C4CC4)c23)CC(C)N1 (stereo not drawn) tested on full-length human PKCι (Homo sapiens, UniProt P41743).
Marked response: < 100 nM

Exam item: Give IC50 for `Cc1ccc(F)c(Nc2cc(-c3nc(N4CCNCC4)c4c(C5CC5)cncc4n3)ccn2)c1F` tested on full-length human PKCι (Homo sapiens, UniProt P41743).
Marked response: < 100 nM

Exam item: Give IC50 for `Fc1cccn2nc(Nc3cc(-c4nc(N5CCNCC5)c5c(C6CC6)cncc5n4)ccn3)nc12` tested on full-length human PKCι (Homo sapiens, UniProt P41743).
Marked response: < 100 nM

Exam item: Give IC50 for `COc1cncc2nc(-c3ccnc(Nc4ccccc4)c3)nc(N3CCC(F)CC3)c12` tested on full-length human PKCι (Homo sapiens, UniProt P41743).
Marked response: 10000 to 40000 nM

Exam item: Give IC50 for `COc1ccc(F)c(Nc2cc(-c3nc(N4CCNCC4)c4c(C5CC5)cncc4n3)ccn2)c1Cl` tested on full-length human PKCι (Homo sapiens, UniProt P41743).
Marked response: < 100 nM

Exam item: Give IC50 for `COc1cncc2nc(-c3ccnc(Nc4ccccc4)c3)nc(N3CCN[C@H](CO)C3)c12` tested on full-length human PKCι (Homo sapiens, UniProt P41743).
Marked response: < 100 nM

Exam item: Give IC50 for `COc1cc(N2CCOCC2)ccc1Nc1cc(-c2nc(N3CCNCC3)c3c(OC)cncc3n2)ccn1` tested on full-length human PKCι (Homo sapiens, UniProt P41743).
Marked response: 100 to 1000 nM

Exam item: Give IC50 for `c1ccc(C2(c3cc4c(-c5nc(N6CCNCC6)c6c(C7CC7)cncc6n5)ccnc4[nH]3)CCC2)cc1` tested on full-length human PKCι (Homo sapiens, UniProt P41743).
Marked response: < 100 nM

Exam item: Give IC50 for `N[C@H](CNc1nc(-c2ccncc2)nc2c(Nc3cccc(Cl)c3)nccc12)Cc1ccccc1` tested on full-length human PKCι (Homo sapiens, UniProt P41743).
Marked response: 1000 to 10000 nM
